B1: CASP6 (parent)
chain: TCADRDNLTRRFSDLGFEVKCFND

Variants of: B1
method notes: protein stability index of a GFP-peptide fusion (GPS, HEK-293T) (PSI 1-6); higher = more stable;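 further: lentivirally expressed fusions sorted by FACS into six bins by GFP to DsRed ratio, PSI derived from sequencing read proportions per bin multiplied by bin number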
measurement conditions: c terminus: a fixed tail appended
# if value of protein stability index reaches 3, tag Yes; if it stays below, tag No

# var, cat
rows = [
    ("R5T", "Yes"),
    ("S13L", "No"),
    ("T9C", "No"),
    ("T9R", "Yes"),
    ("R10Y", "No"),
    ("F17L", "Yes"),
    ("A3P", "Yes"),
    ("G16Y", "No"),
    ("C2I", "Yes"),
    ("D14H", "No"),
    ("N7Y", "No"),
    ("D14I", "No"),
    ("D24M", "No"),
    ("R5N", "Yes"),
    ("D14V", "No"),
    ("C2P", "Yes"),
    ("L8Q", "Yes"),
    ("N7S", "Yes"),
    ("T1E", "Yes"),
    ("E18F", "No"),
]
